Quick list: self-aminoacylation per entry.
- Tested on: biotinyl-Met-oxazolone
- TEST: self-aminoacylation, catalytic enhancement (BMO) (fold over background); higher = more active; k-Seq, kA / k0A0; sequences stand for … in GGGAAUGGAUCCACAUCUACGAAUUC…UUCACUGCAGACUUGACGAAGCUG
Variants at the floor of the assay were thinned out.
Please give the numeric answer without any surrounding text.

Exercise: Form field - read-out: self-aminoacylation; system: biotinyl-Met-oxazolone; submitted item: CUACUUCAAACAAUCGGAUUG [Fam1A.1 aminoacylation ribozyme variant]
Key: 0.953

Exercise: // next record AUUACCCUGGUCGUCGAGUAA [Fam2.1 aminoacylation ribozyme variant]
Key: 1.3

Exercise: Entry to check: CUCCUUAAAACAAUCGGUCUG [Fam1A.1 aminoacylation ribozyme variant]
Key: 1.12

Exercise: Moving on to the next sequence: CCACACUUCAAGCGAUAGGUC [Fam1B.1 aminoacylation ribozyme variant]
Key: 0.471

Exercise: Now the same for AUUCAACUAGGUAAUCGGGUG [Fam2.2 aminoacylation ribozyme variant]
Key: 2.72

Next:
Exercise: Find self-aminoacylation (biotinyl-Met-oxazolone) for the entry AUCCCCCUAGGUCAUCGGGUG [Fam2.2 aminoacylation ribozyme variant]
Key: 13.3

Exercise: Next sequence: AUUAACCUGGUCAUCGAGCGA [Fam2.1 aminoacylation ribozyme variant]
Key: 1.88

Exercise: Try this sequence too: AUUCGCCUGGGUCAUCGGGUG [Fam2.2 aminoacylation ribozyme variant]
Key: 12.9

Exercise: Another: AAGUUUGCUUAUAGUCGCGAG [Fam3.1 aminoacylation ribozyme variant]
Key: 1.07

Exercise: Same for CAACUUCAAACAAUCGGUCGG [Fam1A.1 aminoacylation ribozyme variant]
Key: 2.1

Exercise: Proceed to AGUACCCUGGUCAUCGCGUGA [Fam2.1 aminoacylation ribozyme variant]
Key: 19.4

Exercise: Please do the same for CUACUUCAAACGCUCGGUCUG [Fam1A.1 aminoacylation ribozyme variant] as well.
Key: 0.592

Exercise: Likewise for CUACUUAAAACAAUCGGGCUG [Fam1A.1 aminoacylation ribozyme variant] ?
Key: 1.05

###

- Tested on: biotinyl-Ile-oxazolone
- TEST: self-aminoacylation, catalytic enhancement (BIO) (fold over background); higher = more active; k-Seq, kA / k0A0; sequences stand for … in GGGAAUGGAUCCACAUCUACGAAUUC…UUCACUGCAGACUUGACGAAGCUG
Variants at the floor of the assay were thinned out.
METRIC: self-aminoacylation

Field: example entries. Status: answers known.
Exercise: // self-aminoacylation lookup, key: AUUACCCUGGUAAUGGAGUGA [Fam2.1 aminoacylation ribozyme variant]
Key: 3.32

Exercise: Repeat for the following sequence: AUUACCCUGGUCGUCGAGUCA [Fam2.1 aminoacylation ribozyme variant]
Key: 1.05

Exercise: Now give it for CUAGUUCAAACAAUCGGUCAG [Fam1A.1 aminoacylation ribozyme variant] too.
Key: 0.714

Exercise: Thanks! And AUUUACCUAGGUCAUCGAGUG [Fam2.2 aminoacylation ribozyme variant] ?
Key: 6.62

Exercise: Can you check GUUACCCUGGUCAUUGAGUGA [Fam2.1 aminoacylation ribozyme variant] next?
Key: 4.72

Further cases:
Exercise: Could you tell me which self-aminoacylation is on file for AUUCACCGAGGUCAUCUGGUG [Fam2.2 aminoacylation ribozyme variant] ?
Key: 2.39

Exercise: Further, for AUUCACCUAGGCCAUCGGUUG [Fam2.2 aminoacylation ribozyme variant] ?
Key: 1.08

Exercise: Here is the next sequence: AAGUUUGCUAAUAGUCACAAC [Fam3.1 aminoacylation ribozyme variant]
Key: 0.673
